Source: patent EP0907658B1

TARGET: Y2-like receptors
TEST_METHOD_NOTES: Inhibition of the increase in pulse interval evoked by vagus nerve stimulation in anaesthetised rats (prejunctional activity)
Type: in vivo
SETTINGS: change in pulse interval, anaesthetised rats, intravenous peptide
MEASURED_METRIC: EC50 ΔP1% (nmol)

SUBSTANCE: Ac-LRHYLNLLTRQRY-NH2 [Ac[L28,L31]NPY24-36]
EC50 ΔP1%, nmol: 3.16

SUBSTANCE: Ac-LRHYLNLATRQRY-NH2 [Ac[L28,A31]NPY24-36]
EC50 ΔP1%, nmol: 0.78

SUBSTANCE: Ac-LRAYLNLLTRQRY-NH2 [Ac[A26,L28,L31]NPY24-36]
EC50 ΔP1%, nmol: 1.26

[1] Ac-LAHYLNLLTRQRY-NH2 [Ac[A25,L28,L31]NPY24-36]
[2] Ac-ARHALNLLTRQRY-NH2 [Ac[A24,A27,L28,L31]NPY24-36, Ac[Ala24, Ala27, Leu28, Leu31]NPY(24-36)]
Endpoint returns whichever of 1 and 2 has the numerically higher EC50 ΔP1%. Write the label of whichever entry you select.
1
(1: 1.58 nmol, 2: 0.89 nmol)

[I] Ac-LRHYANLLTRQRY-NH2 [Ac[A28,L31]NPY24-36]
[II] Ac-ARHYLNLLTRQRY-NH2 [Ac[A24,L28,L31]NPY24-36]
[III] Ac-LRHYLALLTRQRY-NH2 [Ac[L28,A29,L31]NPY24-36]
Please produce an ascending ranking of these substances based on EC50 ΔP1%. Order the labels as requested and give them as your answer.
II, III, I
(II: 0.46 nmol, III: 1.48 nmol, I: 2.75 nmol)

----------
TARGET: Y2-like receptors
TEST_METHOD_NOTES: Inhibition of the increase in pulse interval evoked by vagus nerve stimulation in anaesthetised rats (prejunctional activity)
Type: in vivo
SETTINGS: change in pulse interval, anaesthetised rats, intravenous peptide
Method: Experiments were carried out on adult rats (Wistar) of both sexes (250-350g), anaesthetised with sodium pentobarbitone (Nembutal, Boehringer-Ingleheim; 60 mg/kg, i.p.). The trachea was cannulated and the animal artificially ventilated. […] The electrocardiogram was measured using needle electrodes and monitored on one channel of an osciloscope. Pulse interval (the period between successive beats of the heart) was recorded beat-by-beat by triggering from ECG. […]
Ends that are not written are not given here.
MEASURED_METRIC: EC50 ΔP1% (nmol)

The cases that follow already have their EC50 ΔP1% on record.
SUBSTANCE: Ac-ARAALNAATRQRY-NH2 [Ac[A24,26,27,30,31,L28]NPY24-36]
EC50 ΔP1% [nmol]: 0.56
--
SUBSTANCE: Ac-LRHYLNLLARQRY-NH2 [Ac[L28,L31,A32]NPY24-36]
EC50 ΔP1% [nmol]: 6.46
--
SUBSTANCE: Ac-LRHALNLLTRQRY-NH2 [Ac[A27,L28,L31]NPY24-36]
EC50 ΔP1% [nmol]: 0.52

[A] Ac-LAHYRNLLTRQRY-NH2 [Ac[A25,R28,L31]NPY24-36]
[B] Ac[L28,I30]NPY24-36 (Ac-LRHYLNIITRQRY; ends and bridges not checked; UniProt P01303 52-64, looked up, variant I28L L30I)
Endpoint returns whichever of A and B has the numerically higher EC50 ΔP1%. Write the label of whichever entry you select.
A
(A: 1.95 nmol, B: 1.26 nmol)
